Data provenance: ChEMBL document CHEMBL1629636

Test system: Borrelia spielmanii
Assay: Antimicrobial activity against Borrelia spielmanii isolate PSig2 after 72 hrs by colorimetric assay
Format: functional
Settings: Borreliella spielmanii, isolate PSig2, 72 h
Measured property: MBC (µg/mL)
One number for each entry, in µg/mL.

Below, 2 compounds whose answers are already recorded.
1) CC[C@H]1OC(=O)[C@H](C)[C@@H](O[C@H]2C[C@@](C)(OC)[C@@H](O)[C@H](C)O2)[C@H](C)[C@@H](O[C@@H]2O[C@H](C)C[C@H](N(C)C)[C@H]2O)[C@](C)(OC)C[C@@H](C)C(=O)[C@H](C)[C@@H](O)[C@]1(C)O; 1
2) CC1(C)S[C@@H]2[C@H](NC(=O)[C@H](N)c3ccc(O)cc3)C(=O)N2[C@H]1C(=O)O; 16

Hi, could you look up MBC for each item in my list?
1. CC[C@H]1OC(=O)[C@H](C)[C@@H](O[C@H]2C[C@@](C)(OC)[C@@H](O)[C@H](C)O2)[C@H](C)[C@@H](O[C@@H]2O[C@H](C)C[C@H](N(C)C)[C@H]2O)[C@](C)(O)C[C@@H](C)C(=O)[C@H](C)[C@@H](O)[C@]1(C)O
2. CO/N=C(\C(=O)N[C@@H]1C(=O)N2C(C(=O)O)=C(COC(N)=O)CS[C@H]12)c1ccco1
3. CO/N=C(\C(=O)N[C@@H]1C(=O)N2C(C(=O)O)=C(CSc3nc(=O)c(O)nn3C)CS[C@H]12)c1csc(N)n1
4. C[C@H]1c2cccc(O)c2C(=O)C2=C(O)[C@]3(O)C(=O)C(C(N)=O)=C(O)[C@@H](N(C)C)[C@@H]3[C@@H](O)[C@@H]21.O

Output:
1: 2; 2: 8; 3: 1; 4: 8

* * *

Test system: Borrelia spielmanii
Assay: Antimicrobial activity against Borrelia spielmanii isolate PMew after 72 hrs by colorimetric assay
Format: functional
Settings: Borreliella spielmanii
Kindly state MBC for each of the entries shown.
Numbers only, in µg/mL.

Below, 3 compounds whose answers are already recorded.
1) CO/N=C(\C(=O)N[C@@H]1C(=O)N2C(C(=O)O)=C(CSc3nc(=O)c(O)nn3C)CS[C@H]12)c1csc(N)n1; 4
2) C[C@H]1c2cccc(O)c2C(=O)C2=C(O)[C@]3(O)C(=O)C(C(N)=O)=C(O)[C@@H](N(C)C)[C@@H]3[C@@H](O)[C@@H]21.O; 16
3) CC[C@H]1OC(=O)[C@H](C)[C@@H](O[C@H]2C[C@@](C)(OC)[C@@H](O)[C@H](C)O2)[C@H](C)[C@@H](O[C@@H]2O[C@H](C)C[C@H](N(C)C)[C@H]2O)[C@](C)(O)C[C@@H](C)C(=O)[C@H](C)[C@@H](O)[C@]1(C)O; 2

Attention now turns to another entry.
Input: MBC lookup needed for CC[C@H]1OC(=O)[C@H](C)[C@@H](O[C@H]2C[C@@](C)(OC)[C@@H](O)[C@H](C)O2)[C@H](C)[C@@H](O[C@@H]2O[C@H](C)C[C@H](N(C)C)[C@H]2O)[C@](C)(OC)C[C@@H](C)C(=O)[C@H](C)[C@@H](O)[C@]1(C)O , thanks.
Output: 1

* * *

Test system: Borrelia spielmanii
Experiment: Antimicrobial activity against Borrelia spielmanii isolate PMai after 72 hrs by colorimetric assay
Assay type: functional
Details: Borreliella spielmanii
Measured property: MBC
The answer should read as a number with its unit following.

1. CO/N=C(\C(=O)N[C@@H]1C(=O)N2C(C(=O)O)=C(COC(N)=O)CS[C@H]12)c1ccco1 [CEFUROXIME]; 8 µg/mL
2. CO/N=C(\C(=O)N[C@@H]1C(=O)N2C(C(=O)O)=C(CSc3nc(=O)c(O)nn3C)CS[C@H]12)c1csc(N)n1 [CEFTRIAXONE]; 4 µg/mL
3. CC1(C)S[C@@H]2[C@H](NC(=O)[C@H](N)c3ccc(O)cc3)C(=O)N2[C@H]1C(=O)O [AMOXICILLIN]; 8 µg/mL
4. CC[C@H]1OC(=O)[C@H](C)[C@@H](O[C@H]2C[C@@](C)(OC)[C@@H](O)[C@H](C)O2)[C@H](C)[C@@H](O[C@@H]2O[C@H](C)C[C@H](N(C)C)[C@H]2O)[C@](C)(OC)C[C@@H](C)C(=O)[C@H](C)[C@@H](O)[C@]1(C)O [CLARITHROMYCIN]; 0.5 µg/mL
5. CC[C@H]1OC(=O)[C@H](C)[C@@H](O[C@H]2C[C@@](C)(OC)[C@@H](O)[C@H](C)O2)[C@H](C)[C@@H](O[C@@H]2O[C@H](C)C[C@H](N(C)C)[C@H]2O)[C@](C)(O)C[C@@H](C)C(=O)[C@H](C)[C@@H](O)[C@]1(C)O [ERYTHROMYCIN]; 1 µg/mL

Input: MBC lookup needed for C[C@H]1c2cccc(O)c2C(=O)C2=C(O)[C@]3(O)C(=O)C(C(N)=O)=C(O)[C@@H](N(C)C)[C@@H]3[C@@H](O)[C@@H]21.O [DOXYCYCLINE] , thanks.
Output: 8 µg/mL

* * *

System: Borrelia burgdorferi
Experiment: Antimicrobial activity against Borrelia burgdorferi isolate LW2 after 72 hrs by colorimetric assay
Type: functional
Conditions: Borreliella burgdorferi, isolate LW2, 72 h
Measured property: MIC (µg/mL)
Numbers only, in µg/mL.

1) CC[C@H]1OC(=O)[C@H](C)[C@@H](O[C@H]2C[C@@](C)(OC)[C@@H](O)[C@H](C)O2)[C@H](C)[C@@H](O[C@@H]2O[C@H](C)C[C@H](N(C)C)[C@H]2O)[C@](C)(O)C[C@@H](C)C(=O)[C@H](C)[C@@H](O)[C@]1(C)O [ERYTHROMYCIN]; 0.0312
2) C[C@H]1c2cccc(O)c2C(=O)C2=C(O)[C@]3(O)C(=O)C(C(N)=O)=C(O)[C@@H](N(C)C)[C@@H]3[C@@H](O)[C@@H]21.O [DOXYCYCLINE]; 0.125
3) CC1(C)S[C@@H]2[C@H](NC(=O)[C@H](N)c3ccc(O)cc3)C(=O)N2[C@H]1C(=O)O [AMOXICILLIN]; 1
4) CC[C@H]1OC(=O)[C@H](C)[C@@H](O[C@H]2C[C@@](C)(OC)[C@@H](O)[C@H](C)O2)[C@H](C)[C@@H](O[C@@H]2O[C@H](C)C[C@H](N(C)C)[C@H]2O)[C@](C)(OC)C[C@@H](C)C(=O)[C@H](C)[C@@H](O)[C@]1(C)O [CLARITHROMYCIN]; 0.0039
5) CO/N=C(\C(=O)N[C@@H]1C(=O)N2C(C(=O)O)=C(COC(N)=O)CS[C@H]12)c1ccco1 [CEFUROXIME]; 0.125

Input: Could you share what MIC was measured for CO/N=C(\C(=O)N[C@@H]1C(=O)N2C(C(=O)O)=C(CSc3nc(=O)c(O)nn3C)CS[C@H]12)c1csc(N)n1 [CEFTRIAXONE] , tested on Borrelia burgdorferi?
Output: 0.0312

* * *

System: Borrelia garinii
Assay: Antimicrobial activity against Borrelia garinii isolate M2094 after 72 hrs by colorimetric assay
Assay type: functional
Settings: Borreliella garinii, isolate M2094, 72 h
Measured property: MIC (mg/L)
Answers are plain numbers, in mg/L.

Below, 2 molecules whose answers are already recorded.
1. CO/N=C(\C(=O)N[C@@H]1C(=O)N2C(C(=O)O)=C(COC(N)=O)CS[C@H]12)c1ccco1; 0.125
2. CC[C@H]1OC(=O)[C@H](C)[C@@H](O[C@H]2C[C@@](C)(OC)[C@@H](O)[C@H](C)O2)[C@H](C)[C@@H](O[C@@H]2O[C@H](C)C[C@H](N(C)C)[C@H]2O)[C@](C)(O)C[C@@H](C)C(=O)[C@H](C)[C@@H](O)[C@]1(C)O; 0.0312

Hi, could you look up MIC for each item in my list?
1. CC1(C)S[C@@H]2[C@H](NC(=O)[C@H](N)c3ccc(O)cc3)C(=O)N2[C@H]1C(=O)O
2. C[C@H]1c2cccc(O)c2C(=O)C2=C(O)[C@]3(O)C(=O)C(C(N)=O)=C(O)[C@@H](N(C)C)[C@@H]3[C@@H](O)[C@@H]21.O
3. CC[C@H]1OC(=O)[C@H](C)[C@@H](O[C@H]2C[C@@](C)(OC)[C@@H](O)[C@H](C)O2)[C@H](C)[C@@H](O[C@@H]2O[C@H](C)C[C@H](N(C)C)[C@H]2O)[C@](C)(OC)C[C@@H](C)C(=O)[C@H](C)[C@@H](O)[C@]1(C)O
4. CO/N=C(\C(=O)N[C@@H]1C(=O)N2C(C(=O)O)=C(CSc3nc(=O)c(O)nn3C)CS[C@H]12)c1csc(N)n1

Output:
1. 0.25
2. 0.25
3. 0.0039
4. 0.0312

* * *

Test system: Borrelia spielmanii
Test: Antimicrobial activity against Borrelia spielmanii isolate PHap after 72 hrs by colorimetric assay
Type: functional
Settings: Borreliella spielmanii
Measured property: MIC
The answer should read as a number with its unit following.

1. CC[C@H]1OC(=O)[C@H](C)[C@@H](O[C@H]2C[C@@](C)(OC)[C@@H](O)[C@H](C)O2)[C@H](C)[C@@H](O[C@@H]2O[C@H](C)C[C@H](N(C)C)[C@H]2O)[C@](C)(O)C[C@@H](C)C(=O)[C@H](C)[C@@H](O)[C@]1(C)O; 0.0079 µg/mL
2. CC[C@H]1OC(=O)[C@H](C)[C@@H](O[C@H]2C[C@@](C)(OC)[C@@H](O)[C@H](C)O2)[C@H](C)[C@@H](O[C@@H]2O[C@H](C)C[C@H](N(C)C)[C@H]2O)[C@](C)(OC)C[C@@H](C)C(=O)[C@H](C)[C@@H](O)[C@]1(C)O; 0.0019 µg/mL
3. CO/N=C(\C(=O)N[C@@H]1C(=O)N2C(C(=O)O)=C(COC(N)=O)CS[C@H]12)c1ccco1; 0.25 µg/mL

Hi, could you look up MIC for each item in my list?
1. CC1(C)S[C@@H]2[C@H](NC(=O)[C@H](N)c3ccc(O)cc3)C(=O)N2[C@H]1C(=O)O
2. CO/N=C(\C(=O)N[C@@H]1C(=O)N2C(C(=O)O)=C(CSc3nc(=O)c(O)nn3C)CS[C@H]12)c1csc(N)n1
3. C[C@H]1c2cccc(O)c2C(=O)C2=C(O)[C@]3(O)C(=O)C(C(N)=O)=C(O)[C@@H](N(C)C)[C@@H]3[C@@H](O)[C@@H]21.O

Output:
["2 µg/mL", "0.0625 µg/mL", "0.0625 µg/mL"]
